This section presents compounds with their documented pIC50 values.
target: N-terminal 6His-tagged ROCK2 catalytic domain 11-552 (Homo sapiens)
Sequence (O75116 11-552): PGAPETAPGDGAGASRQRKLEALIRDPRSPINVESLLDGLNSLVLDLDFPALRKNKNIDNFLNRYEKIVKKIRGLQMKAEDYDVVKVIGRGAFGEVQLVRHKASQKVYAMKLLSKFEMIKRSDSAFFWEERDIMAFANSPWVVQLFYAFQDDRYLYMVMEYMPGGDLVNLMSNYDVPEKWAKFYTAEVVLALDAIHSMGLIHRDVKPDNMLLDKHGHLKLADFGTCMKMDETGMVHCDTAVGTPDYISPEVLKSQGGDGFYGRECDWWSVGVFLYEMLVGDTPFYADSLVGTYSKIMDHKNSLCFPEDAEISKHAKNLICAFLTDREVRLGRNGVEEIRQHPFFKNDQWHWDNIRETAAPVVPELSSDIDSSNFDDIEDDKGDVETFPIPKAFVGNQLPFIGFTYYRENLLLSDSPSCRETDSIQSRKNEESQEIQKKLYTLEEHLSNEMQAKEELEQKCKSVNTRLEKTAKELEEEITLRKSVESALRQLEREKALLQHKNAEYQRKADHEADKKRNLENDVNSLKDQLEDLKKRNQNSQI
pIC50: −log10 of the molar value.

Examples from the recorded data:
COMPOUND	TARGET SYSTEM	pIC50
CCNC(=O)c1ccc(-c2nc(Nc3ccc4[nH]ncc4c3)n(C)n2)c(OC)c1 [Example 395]	N-terminal 6His-tagged ROCK2 catalytic domain 11-552 (Homo sapiens)	> 6.52
CCNC(=O)c1ccc(-c2nc(Nc3ccc4[nH]ncc4c3)n(C)n2)c(C)c1 [Example 399]	N-terminal 6His-tagged ROCK2 catalytic domain 11-552 (Homo sapiens)	> 6.52
Cn1nc(-c2ccc(C(=O)NCC(C)(C)O)cc2)nc1Nc1ccc2[nH]ncc2c1C1CC1 [Example 286]	N-terminal 6His-tagged ROCK2 catalytic domain 11-552 (Homo sapiens)	> 6.52
CNC(=O)Nc1ccc(-c2nc(Nc3ccc4[nH]ncc4c3Cl)n(C)n2)cc1OC [Example 71]	N-terminal 6His-tagged ROCK2 catalytic domain 11-552 (Homo sapiens)	> 6.52
COc1cc(-c2nc(Nc3ccc4[nH]ncc4c3Cl)n(C)n2)ccc1C(=O)N1CCCC1 [Example 197]	N-terminal 6His-tagged ROCK2 catalytic domain 11-552 (Homo sapiens)	5.52 to 6.52

Req: // map CC(C)n1nccc1-c1nc(Nc2ccc3[nH]ncc3c2Cl)n(C)n1 [Example 112] to recorded pIC50 (system: N-terminal 6His-tagged ROCK2 catalytic domain 11-552 (Homo sapiens))
Resp: 5.52 to 6.52

Req: // map COc1cc(-c2nc(Nc3ccc4[nH]ncc4c3C)n(C(C)C)n2)ccc1C(=O)NCC(F)(F)F [Example 449] to recorded pIC50 (system: N-terminal 6His-tagged ROCK2 catalytic domain 11-552 (Homo sapiens))
Resp: > 6.52

Req: // map Cn1nc(-c2ccc3c(c2)CCN(CC(F)(F)F)C3)nc1Nc1ccc2[nH]ncc2c1Cl [Example 372] to recorded pIC50 (system: N-terminal 6His-tagged ROCK2 catalytic domain 11-552 (Homo sapiens))
Resp: > 6.52

Req: // map Cn1nc(-c2ccc(C(=O)NC3CCC(F)(F)C3)cc2)nc1Nc1ccc2[nH]ncc2c1C1CC1 (stereo not shown) [Example 298] to recorded pIC50 (system: N-terminal 6His-tagged ROCK2 catalytic domain 11-552 (Homo sapiens))
Resp: > 6.52

Req: // map Cc1cc(-c2nc(Nc3ccc4[nH]ncc4c3Cl)n(C)n2)n(C)n1 [Example 107] to recorded pIC50 (system: N-terminal 6His-tagged ROCK2 catalytic domain 11-552 (Homo sapiens))
Resp: 5.52 to 6.52

Req: // map Cn1nc(-c2ccc(C(=O)NC3(C)CC3)c(Cl)c2)nc1Nc1ccc2[nH]ncc2c1Cl [Example 255] to recorded pIC50 (system: N-terminal 6His-tagged ROCK2 catalytic domain 11-552 (Homo sapiens))
Resp: 5.52 to 6.52

Req: // map CC(C)C(=O)N1CCc2cc(-c3nc(Nc4ccc5[nH]ncc5c4Cl)n(C)n3)ccc2C1 [Example 236] to recorded pIC50 (system: N-terminal 6His-tagged ROCK2 catalytic domain 11-552 (Homo sapiens))
Resp: > 6.52

Req: // map CC(C)NC(=O)COc1ccc(-c2nc(Nc3ccc4[nH]ncc4c3)n(C)n2)cc1Cl [Example 250] to recorded pIC50 (system: N-terminal 6His-tagged ROCK2 catalytic domain 11-552 (Homo sapiens))
Resp: > 6.52

Req: // map COc1cc(-c2nc(Nc3ccc4[nH]ncc4c3Cl)n(CCN3CCOCC3)n2)ccc1OCC(=O)NC(C)C [Example 434] to recorded pIC50 (system: N-terminal 6His-tagged ROCK2 catalytic domain 11-552 (Homo sapiens))
Resp: > 6.52

Req: // map COc1cc(-c2nc(Nc3ccc4[nH]ncc4c3Cl)n(C)n2)ccc1C(=O)NC1CNCC1(F)F (stereo not shown) [Example 365] to recorded pIC50 (system: N-terminal 6His-tagged ROCK2 catalytic domain 11-552 (Homo sapiens))
Resp: > 6.52

Req: // map Cn1nc(-c2ccc(OC(F)(F)F)cc2)nc1Nc1ccc2[nH]ncc2c1Cl [Example 138] to recorded pIC50 (system: N-terminal 6His-tagged ROCK2 catalytic domain 11-552 (Homo sapiens))
Resp: > 6.52
